Catalogue of relative viability values
Test system: NCI-H1915
Experiment: relative viability (nuclei count vs DMSO), 5 days (fraction); higher = more cells survive
Details: first compound 0.01 µM
propertyMeasured: relative viability

{"columns": ["molecule", "propertyMeasured", "assayResult"],
 "data": [
  ["Cc1cn(-c2cc(NC(=O)c3ccc(C)c(Nc4nccc(-c5cccnc5)n4)c3)cc(C(F)(F)F)c2)cn1 [Nilotinib] + CC(C)C[C@H](NC(=O)[C@H](Cc1ccccc1)NC(=O)c1cnccn1)B(O)O [Bortezomib] (partner 0.002 µM)", "relative viability", 1.18],
  ["Cc1cn(-c2cc(NC(=O)c3ccc(C)c(Nc4nccc(-c5cccnc5)n4)c3)cc(C(F)(F)F)c2)cn1 [Nilotinib] + CS(=O)(=O)CCNCc1ccc(-c2ccc3ncnc(Nc4ccc(OCc5cccc(F)c5)c(Cl)c4)c3c2)o1 [Lapatinib] (partner 2 µM)", "relative viability", 1.22],
  ["Cc1cn(-c2cc(NC(=O)c3ccc(C)c(Nc4nccc(-c5cccnc5)n4)c3)cc(C(F)(F)F)c2)cn1 [Nilotinib] + Cc1nc(Nc2ncc(C(=O)Nc3c(C)cccc3Cl)s2)cc(N2CCN(CCO)CC2)n1 [Dasatinib] (partner 0.075 µM)", "relative viability", 0.354],
  ["Cc1cn(-c2cc(NC(=O)c3ccc(C)c(Nc4nccc(-c5cccnc5)n4)c3)cc(C(F)(F)F)c2)cn1 [Nilotinib] + CC(=O)c1c(C)c2cnc(Nc3ccc(N4CCNCC4)cn3)nc2n(C2CCCC2)c1=O [Palbociclib] (partner 0.5 µM)", "relative viability", 0.53],
  ["Cc1cn(-c2cc(NC(=O)c3ccc(C)c(Nc4nccc(-c5cccnc5)n4)c3)cc(C(F)(F)F)c2)cn1 [Nilotinib] + Cc1nc(NC(=O)N2CCC[C@H]2C(N)=O)sc1-c1ccnc(C(C)(C)C(F)(F)F)c1 [Alpelisib] (partner 2 µM)", "relative viability", 1.14]
]}

----------
Tested on: COR-L23
Test: relative viability (nuclei count vs DMSO), 5 days (fraction); higher = more cells survive
Settings: first compound 0.02 µM
Catalogue of relative viability values
propertyMeasured: relative viability

{"columns": ["compound", "targetOrTestSystem", "assayResult"],
 "data": [
  ["CN1CCN(CCOc2cc(OC3CCOCC3)c3c(Nc4c(Cl)ccc5c4OCO5)ncnc3c2)CC1 [Saracatinib] + Cc1nc(Nc2ncc(C(=O)Nc3c(C)cccc3Cl)s2)cc(N2CCN(CCO)CC2)n1 [Dasatinib] (partner 0.075 µM)", "COR-L23", 0.553],
  ["CCNC(=O)c1noc(-c2cc(C(C)C)c(O)cc2O)c1-c1ccc(CN2CCOCC2)cc1 [Luminespib] + N=C(N)NC(=N)NCCc1ccccc1 [Phenformin] (partner 250 µM)", "COR-L23", 0.457],
  ["CCNC(=O)c1noc(-c2cc(C(C)C)c(O)cc2O)c1-c1ccc(CN2CCOCC2)cc1 [Luminespib] + Nc1ncn([C@H]2C[C@H](O)[C@@H](CO)O2)c(=O)n1 [Decitabine] (partner 2 µM)", "COR-L23", 0.353],
  ["CCNC(=O)c1noc(-c2cc(C(C)C)c(O)cc2O)c1-c1ccc(CN2CCOCC2)cc1 [Luminespib] + Nc1nc2[nH]cc(CCc3ccc(C(=O)N[C@@H](CCC(=O)O)C(=O)O)cc3)c2c(=O)[nH]1 [Pemetrexed] (partner 0.2 µM)", "COR-L23", 0.215],
  ["CCNC(=O)c1noc(-c2cc(C(C)C)c(O)cc2O)c1-c1ccc(CN2CCOCC2)cc1 [Luminespib] + C[C@@H](Oc1cc(-c2cnn(C3CCNCC3)c2)cnc1N)c1c(Cl)ccc(F)c1Cl [Crizotinib] (partner 1 µM)", "COR-L23", 0.81],
  ["CN1CCN(CCOc2cc(OC3CCOCC3)c3c(Nc4c(Cl)ccc5c4OCO5)ncnc3c2)CC1 [Saracatinib] + COc1cc2c(Oc3ccc(NC(=O)C4(C(=O)Nc5ccc(F)cc5)CC4)cc3F)ccnc2cc1OCCCN1CCOCC1 [Foretinib] (partner 0.25 µM)", "COR-L23", 0.905],
  ["CN1CCN(CCOc2cc(OC3CCOCC3)c3c(Nc4c(Cl)ccc5c4OCO5)ncnc3c2)CC1 [Saracatinib] + O=C(CCCCCCC(=O)Nc1ccccc1)NO [Vorinostat] (partner 1 µM)", "COR-L23", 0.361],
  ["CN1CCN(CCOc2cc(OC3CCOCC3)c3c(Nc4c(Cl)ccc5c4OCO5)ncnc3c2)CC1 [Saracatinib] + CC(=O)Nc1cccc(-n2c(=O)n(C3CC3)c(=O)c3c(Nc4ccc(I)cc4F)n(C)c(=O)c(C)c32)c1 [Trametinib] (partner 0.02 µM)", "COR-L23", 0.58],
  ["CN1CCN(CCOc2cc(OC3CCOCC3)c3c(Nc4c(Cl)ccc5c4OCO5)ncnc3c2)CC1 [Saracatinib] + Cc1nc(NC(=O)N2CCC[C@H]2C(N)=O)sc1-c1ccnc(C(C)(C)C(F)(F)F)c1 [Alpelisib] (partner 2 µM)", "COR-L23", 0.755],
  ["CN1CCN(CCOc2cc(OC3CCOCC3)c3c(Nc4c(Cl)ccc5c4OCO5)ncnc3c2)CC1 [Saracatinib] + C[C@@H](Oc1cc(-c2cnn(C3CCNCC3)c2)cnc1N)c1c(Cl)ccc(F)c1Cl [Crizotinib] (partner 1 µM)", "COR-L23", 0.65],
  ["CN1CCN(CCOc2cc(OC3CCOCC3)c3c(Nc4c(Cl)ccc5c4OCO5)ncnc3c2)CC1 [Saracatinib] + CS(=O)(=O)CCNCc1ccc(-c2ccc3ncnc(Nc4ccc(OCc5cccc(F)c5)c(Cl)c4)c3c2)o1 [Lapatinib] (partner 2 µM)", "COR-L23", 0.947],
  ["CN1CCN(CCOc2cc(OC3CCOCC3)c3c(Nc4c(Cl)ccc5c4OCO5)ncnc3c2)CC1 [Saracatinib] + N=C(N)NC(=N)NCCc1ccccc1 [Phenformin] (partner 250 µM)", "COR-L23", 0.466]
]}
